- System: BVDV NADL virus
- protocol: CPE-based antiviral assay, BVDV NADL in MDBK cells (MTS/PMS)
- condition.notes: selectivity index, CC50 vs EC50
Threshold-based label: S.I. under 20 gives YES, S.I. not under 20 gives NO.

Study these solved cases before continuing.
{"compound.smiles": "O=C(Nc1ccn(-c2ccccc2)n1)c1cc(-c2cccc(F)c2)nc2ccccc12", "target.or.system": "BVDV NADL virus", "cat": "NO"}
{"compound.smiles": "O=C(Nc1nc2cc(F)ccc2s1)c1cc(-c2ccco2)nc2ccccc12", "target.or.system": "BVDV NADL virus", "cat": "YES"}
{"compound.smiles": "O=C(Nc1nc2c(C(F)(F)F)cccc2s1)c1cc(-c2ccccc2)nc2ccccc12", "target.or.system": "BVDV NADL virus", "cat": "NO"}
{"compound.smiles": "Cc1cc(NC(=O)c2cc(-c3ccco3)nc3ccccc23)on1", "target.or.system": "BVDV NADL virus", "cat": "YES"}
{"compound.smiles": "COc1cccc(NC(=O)c2cc(-c3ccccc3)nc3ccccc23)c1", "target.or.system": "BVDV NADL virus", "cat": "YES"}

In: hey, is S.I. for O=C(Nc1nc2ccc(C(F)(F)F)cc2s1)c1cc(-c2ccccc2)nc2ccccc12 lower than 20 or not?
Out: YES

In: Field: below-cutoff. Rule: recorded S.I. strictly less than 20. Subject: O=C(Nc1ccn(-c2ccccc2)n1)c1cc(-c2cccnc2)nc2ccccc12
Out: YES

In: # check: S.I. < 20 for O=C(Nc1nc2ccccc2[nH]1)c1cc(-c2ccccc2)nc2ccccc12
Out: YES
